- system name: Beta-2 adrenergic receptor (Homo sapiens, UniProt P07550)
- Sequence (P07550 whole entry): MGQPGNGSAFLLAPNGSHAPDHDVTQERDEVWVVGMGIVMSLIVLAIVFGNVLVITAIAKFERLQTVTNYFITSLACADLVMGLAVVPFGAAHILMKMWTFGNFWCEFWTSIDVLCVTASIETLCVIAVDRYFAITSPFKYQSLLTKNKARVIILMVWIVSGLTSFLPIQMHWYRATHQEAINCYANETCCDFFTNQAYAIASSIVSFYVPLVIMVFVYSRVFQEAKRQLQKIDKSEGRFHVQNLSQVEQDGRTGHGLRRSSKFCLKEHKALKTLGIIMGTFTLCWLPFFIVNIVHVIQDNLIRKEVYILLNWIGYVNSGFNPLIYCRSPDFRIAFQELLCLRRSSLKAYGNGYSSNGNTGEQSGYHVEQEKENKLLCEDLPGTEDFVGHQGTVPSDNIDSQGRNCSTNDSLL
- protocol: Agonist activity at human beta2 adrenoceptor expressed in CHO cells assessed as stumulation of intracellular cAMP production
- Assay type: functional, cell-based
So I've got a bunch of molecules here, and I need their pEC50 values.
In textbook form, pEC50 equals minus log to base ten of the concentration in mol/L.

So, O=c1ccc2c([C@@H](O)CNCCc3ccc(CCN4CCC(Cn5cnc([C@](O)(c6ccccc6)C6CCCCC6)n5)CC4)cc3)ccc(O)c2[nH]1 ? Its pEC50 was 7.68

The recorded pEC50 for entry O=c1ccc2c([C@@H](O)CNCCCCCCCCCN3CCC(Cn4cnc(C(O)(c5ccccc5)C5CCCCC5)n4)CC3)ccc(O)c2[nH]1 (stereo partly drawn) equals 7.68

In plain terms, O=C(Nc1ccccc1-c1ccc(O)c(Cl)c1)OC1CCN(CCCCCCCCCNC[C@H](O)c2ccc(O)c3[nH]c(=O)ccc23)CC1 has a documented pEC50 of 8.43

----------
- protocol: Therapeutic index, ratio of compound activity for heart rate in conscious dog to compound activity for inhibition of methacholine-induced bronchoconstriction in conscious dog
- Type: organism-based, Canis lupus familiaris
- test conditions: in vivo, read-out: TI
experimental readout: selectivity ratio
Output spec: single numeric token, no unit.

// sample OCc1cc(C(O)CNCCCCCCOCCCCc2ccccc2)ccc1O (stereo unspecified) , its selectivity ratio was 7

----------
- protocol: Clearance in human liver microsomes
- Type: ADME
- test conditions: read-out: CLH
experimental readout: microsomal CLint (µL/min/mg)
Response body: numeric value in µL/min/mg, unit text excluded.

Quick note, microsomal CLint for O=C(Nc1ccccc1-c1ccc(O)c(Cl)c1)OC1CCN(CCCCCCCCCNC[C@H](O)c2ccc(O)c3[nH]c(=O)ccc23)CC1 landed at 23

Record summary for O=c1ccc2c([C@@H](O)CNCCCCCCCCCN3CCC(Cn4cnc(C(O)(c5ccccc5)c5ccccc5)n4)CC3)ccc(O)c2[nH]1 : reported microsomal CLint = 18

get_value(item= O=c1ccc2c([C@@H](O)CNCCc3ccc(CCN4CCC(Cn5cnc(C(O)(c6ccccc6)c6ccccc6)n5)CC4)cc3)ccc(O)c2[nH]1 , readout=microsomal CLint) returns 47

----------
- system name: Muscarinic acetylcholine receptor M4 (Homo sapiens)
- Sequence (P08173 whole entry): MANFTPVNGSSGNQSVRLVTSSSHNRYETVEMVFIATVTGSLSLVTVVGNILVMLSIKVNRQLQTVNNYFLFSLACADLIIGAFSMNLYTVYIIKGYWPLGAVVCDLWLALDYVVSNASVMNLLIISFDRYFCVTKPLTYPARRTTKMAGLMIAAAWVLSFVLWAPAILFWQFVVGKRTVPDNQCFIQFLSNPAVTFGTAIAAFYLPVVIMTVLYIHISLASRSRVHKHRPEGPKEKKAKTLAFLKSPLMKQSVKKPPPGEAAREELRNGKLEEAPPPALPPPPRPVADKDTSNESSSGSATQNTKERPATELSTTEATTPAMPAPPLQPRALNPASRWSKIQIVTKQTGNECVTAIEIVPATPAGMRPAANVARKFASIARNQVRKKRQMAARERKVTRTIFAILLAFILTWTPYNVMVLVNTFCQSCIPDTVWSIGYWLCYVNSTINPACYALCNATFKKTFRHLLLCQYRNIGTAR
experimental readout: Ki
Express the reported value numerically, then name its unit.

Here O=c1ccc2c([C@@H](O)CNCCc3ccc(CCN4CCC(Cn5cnc([C@](O)(c6ccccc6)C6CCCCC6)n5)CC4)cc3)ccc(O)c2[nH]1 was tested on Muscarinic acetylcholine receptor M4 (Homo sapiens), and its Ki came to 0.35 nM
